melting point: recorded values
Write it as a number; the unit °C goes unstated.

Data request: melting point for CC(C)(CO)NS(=O)(=O)c1cccc(C#Cc2cnn3c(C(F)(F)F)cc(-c4cccc(C(F)(F)F)c4)nc23)c1 ?
Data returned: 132

Data request: One more compound: NS(=O)(=O)c1cc(C#Cc2cnn3c(C(F)F)cc(-c4cccc(C(F)(F)F)c4)nc23)c(F)cc1F
Data returned: 277

Data request: One more compound: CN(C)CCNS(=O)(=O)c1ccc(C#Cc2cnn3c(C(F)F)cc(-c4cccc(C(F)(F)F)c4)nc23)s1
Data returned: 170

Data request: One more compound: CN(C)CCNS(=O)(=O)c1ccc(C#Cc2cnn3c(C(F)F)cc(-c4ccc(C(F)(F)F)cc4)nc23)s1
Data returned: 132

Data request: One more compound: NS(=O)(=O)c1ccc(C#Cc2cnn3c(C(F)F)cc(-c4ccc(C(F)(F)F)cc4)nc23)s1
Data returned: 210

====

melting point: recorded values
Write it as a number; the unit °C goes unstated.

Data request: melting point for NCCNS(=O)(=O)c1ccc(C#Cc2cnn3c(C(F)(F)F)cc(-c4cccc(C(F)(F)F)c4)nc23)s1 ?
Data returned: 196

Data request: One more compound: CC(C)(C)NS(=O)(=O)c1ccc(C#Cc2cnn3c(C(F)F)cc(-c4ccc(C(F)(F)F)cc4)nc23)s1
Data returned: 187

====

melting point: recorded values

Past entries and their recorded results:
compound	melting point
Cc1cc(-c2cc(C(F)(F)F)n3ncc(C#Cc4ccc(S(N)(=O)=O)s4)c3n2)ccc1Cl [Example 114]	216 °C
CC(C)(C)NS(=O)(=O)c1cccc(C#Cc2cnn3c(C(F)(F)F)cc(-c4ccc(C(F)(F)F)cc4)nc23)c1 [Example 24]	192 to 200 °C
O=S(=O)(Nc1ccncc1)c1ccc(C#Cc2cnn3c(C(F)(F)F)cc(-c4ccc(C(F)(F)F)cc4)nc23)s1 [Example 280]	209 °C
Oc1cncc(C#Cc2cnn3c(C(F)(F)F)cc(-c4ccc(C(F)(F)F)cc4)nc23)c1 [Example 58]	258 to 260 °C

Data request: melting point for Cc1cc(-c2ccc(Cl)cc2)nc2c(C#Cc3cnc(N)nc3)cnn12 [Example 316] ?
Data returned: 280 to 282 °C

====

value_type: melting point

smiles_notation	melting point
CN(C)CCNS(=O)(=O)c1ccc(C#Cc2cnn3c(C(F)(F)F)cc(-c4ccc(C(F)(F)F)cc4)nc23)cc1	193 to 194 °C
Nc1ccc(C#Cc2cnn3c(C(F)(F)F)cc(-c4ccc(C(F)(F)F)cc4)nc23)nn1	214 to 216 °C
NS(=O)(=O)c1cncc(C#Cc2cnn3c(C(F)F)cc(-c4ccc(C(F)(F)F)cc4)nc23)c1	238 °C
NS(=O)(=O)c1ccc(C#Cc2cnn3c(C4CC4)cc(-c4ccc(Cl)cc4)nc23)cc1	225 to 228 °C
CNS(=O)(=O)c1ccc(C#Cc2cnn3c(C(F)F)cc(-c4ccc(C(F)(F)F)cc4)nc23)cc1	202 to 203 °C
O=S(=O)(c1ccc(C#Cc2cnn3c(C(F)F)cc(-c4ccc(C(F)(F)F)cc4)nc23)cc1)N1CCOCC1	227 to 228 °C

Data request: melting point for N#CCCNS(=O)(=O)c1cccc(C#Cc2cnn3c(C(F)(F)F)cc(-c4ccc(C(F)(F)F)cc4)nc23)c1 ?
Data returned: 174 to 182 °C

====

value_type: melting point

compound	value
O=S(=O)(NCCO)c1ccc(C#Cc2cnn3c(C(F)(F)F)cc(-c4ccc(C(F)(F)F)cc4)nc23)cc1 [Example 125]	206 to 208 °C
CN(C)CCNS(=O)(=O)c1ccc(C#Cc2cnn3c(C(F)(F)F)cc(-c4ccc(C(F)(F)F)cc4)nc23)s1 [Example 159]	178 °C
Nc1ccc(C#Cc2cnc3c(C(F)(F)F)cc(-c4ccc(C(F)(F)F)cc4)cn23)cn1 [Example 191]	260 to 262 °C
Nc1cnc(C#Cc2cnn3c(C(F)F)cc(-c4ccc(C(F)(F)F)cc4)nc23)cn1 [Example 287]	233 °C
NS(=O)(=O)c1cc(C#Cc2cnn3c(C4CC4)cc(-c4ccc(Cl)c(Cl)c4)nc23)c(F)cc1F [Example 85]	280 to 281 °C
Cc1cc(-c2ccc(C(F)(F)F)cc2)nc2c(C#Cc3cccc(S(N)(=O)=O)c3)cnn12 [Example 151]	214 to 216 °C

Data request: melting point for NS(=O)(=O)c1ccc(C#Cc2cnn3c(C4CC4)cc(-c4ccc(Cl)c(Cl)c4)nc23)s1 [Example 86] ?
Data returned: 213 to 214 °C

====

melting point: recorded values
Write it as a number; the unit °C goes unstated.

smiles_notation	value_type	unit_text	value
CCOc1cccc(-c2cc(C(F)F)n3ncc(C#Cc4ccc(S(N)(=O)=O)cc4)c3n2)c1	melting point	°C	245
O=S(=O)(NCc1ccncc1)c1ccc(C#Cc2cnn3c(C(F)(F)F)cc(-c4ccc(C(F)(F)F)cc4)nc23)s1	melting point	°C	170

Proceeding to the next compound to report its melting point.
Data request: melting point for Cc1cc(-c2ccc(C(F)(F)F)cc2)cn2c(C#Cc3cncc(S(=O)(=O)NC(C)(C)CO)c3)cnc12 ?
Data returned: 189

====

melting point: recorded values

Past entries and their recorded results:
smiles_notation	melting point
Cc1cc(-c2ccc(Cl)cc2)cn2c(C#Cc3ccc(N)nc3)cnc12	231 to 234 °C
Cc1cc(-c2cc(C(F)(F)F)n3ncc(C#Cc4ncc(S(=O)(=O)NC(C)(C)CO)s4)c3n2)ccc1Cl	217 °C
O=S(=O)(NCCO)c1cccc(C#Cc2cnn3c(C(F)F)cc(-c4ccc(C(F)(F)F)cc4)nc23)c1	113 to 115 °C
COc1ccc(C#Cc2cnn3c(C(F)(F)F)cc(-c4ccc(C(F)(F)F)cc4)nc23)cn1	166 to 168 °C
Nc1ncc(C#Cc2cnn3c(C(F)(F)F)cc(-c4ccc(Cl)cc4)nc23)cc1C(F)(F)F	209 °C

Data request: melting point for CNc1ccc(C#Cc2cnn3c(C(F)(F)F)cc(-c4ccc(C(F)(F)F)cc4)nc23)cn1 ?
Data returned: 187 °C

Data request: One more compound: CC(C)(O)c1ccc(C#Cc2cnn3c(CO)cc(-c4ccc(Cl)cc4)nc23)cc1
Data returned: 118 to 120 °C

Data request: One more compound: NS(=O)(=O)c1cncc(C#Cc2cnn3ccc(-c4ccc(Cl)cc4)nc23)c1
Data returned: 248 to 249 °C

====

# pKi per entry for UniProt P31421
# Sequence (P31421 19-872): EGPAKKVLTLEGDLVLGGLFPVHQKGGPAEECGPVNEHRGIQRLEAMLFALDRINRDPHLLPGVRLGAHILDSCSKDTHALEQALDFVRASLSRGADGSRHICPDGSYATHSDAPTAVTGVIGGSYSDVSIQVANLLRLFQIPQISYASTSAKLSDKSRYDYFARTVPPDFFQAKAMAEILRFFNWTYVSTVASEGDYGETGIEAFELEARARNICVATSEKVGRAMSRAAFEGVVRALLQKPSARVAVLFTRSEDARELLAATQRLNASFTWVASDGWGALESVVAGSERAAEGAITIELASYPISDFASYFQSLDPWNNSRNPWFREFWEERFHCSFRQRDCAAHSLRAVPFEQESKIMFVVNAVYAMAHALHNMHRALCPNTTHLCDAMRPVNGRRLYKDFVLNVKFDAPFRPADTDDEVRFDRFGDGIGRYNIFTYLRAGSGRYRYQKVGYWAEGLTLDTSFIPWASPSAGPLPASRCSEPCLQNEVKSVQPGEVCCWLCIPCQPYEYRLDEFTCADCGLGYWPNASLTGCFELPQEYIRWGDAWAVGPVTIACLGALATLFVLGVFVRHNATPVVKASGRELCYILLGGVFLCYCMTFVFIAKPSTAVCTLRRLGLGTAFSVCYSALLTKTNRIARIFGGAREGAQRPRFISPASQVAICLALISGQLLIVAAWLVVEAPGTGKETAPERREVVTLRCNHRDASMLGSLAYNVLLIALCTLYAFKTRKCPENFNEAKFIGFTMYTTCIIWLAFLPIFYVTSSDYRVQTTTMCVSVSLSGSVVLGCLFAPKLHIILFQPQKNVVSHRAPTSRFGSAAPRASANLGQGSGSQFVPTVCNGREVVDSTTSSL
Note: pKi values are expressed as the negative base-10 logarithm of concentration in M.

smiles_notation	pKi
NS(=O)(=O)c1cc(C#Cc2cnc3c(C(F)(F)F)cc(-c4ccc(C(F)(F)F)cc4)cn23)c(F)cc1F	8.05
CC(CO)(CO)NS(=O)(=O)c1cncc(C#Cc2cnn3c(C(F)(F)F)cc(-c4ccc(Cl)c(Cl)c4)nc23)c1	8.40

Proceeding to the next compound to report its pKi.
Data request: What is its pKi for UniProt P31421? Entry: NS(=O)(=O)c1cccc(C#Cc2cnn3c(C(F)(F)F)cc(-c4ccc(C(F)(F)F)cc4)nc23)c1
Data returned: 8.70

====

melting point: recorded values

Past entries and their recorded results:
compound	melting point
NS(=O)(=O)c1ccc(C#Cc2cnn3c(CO)cc(-c4ccc(Cl)cc4)nc23)s1	194 to 196 °C
NS(=O)(=O)c1ccc(C#Cc2cnn3c(C(F)F)cc(-c4ccc(C(F)(F)F)cc4)nc23)c(F)c1	230 to 232 °C
Cc1cc(-c2cc(C(F)F)n3ncc(C#Cc4ccc(S(=O)(=O)NC(C)(C)C)s4)c3n2)ccc1Cl	220 °C
Nc1ccc(C#Cc2cnn3c(C(F)F)cc(-c4ccc(C(F)(F)F)cc4)nc23)cn1	216 °C
CC(C)(CO)NS(=O)(=O)c1cnc(C#Cc2cnn3c(C(F)(F)F)cc(-c4ccc(C(F)(F)F)cc4)nc23)s1	252 to 253 °C

Data request: melting point for COc1ccc(C#Cc2cnn3ccc(-c4ccc(Cl)cc4)nc23)cc1S(=O)(=O)NC(C)(C)CO ?
Data returned: 264 to 266 °C

Data request: One more compound: Nc1ncc(C#Cc2cnn3c(C(F)(F)F)cc(-c4ccc(C(F)(F)F)cc4)nc23)cn1
Data returned: 255 to 256 °C

Data request: One more compound: CC(C)(CO)NS(=O)(=O)c1cncc(C#Cc2cnn3c(C(F)(F)F)cc(-c4ccc(C(F)(F)F)cc4)nc23)c1
Data returned: 226 to 227 °C

Data request: One more compound: CC(O)c1ccc(C#Cc2cnc3c(C(F)(F)F)cc(-c4ccc(C(F)(F)F)cc4)cn23)cc1 (stereo not drawn)
Data returned: 157 to 158 °C

====

melting point: recorded values
Write it as a number; the unit °C goes unstated.

Past entries and their recorded results:
compound	melting point [°C]
CN1CCN(S(=O)(=O)c2ccc(C#Cc3cnn4c(C(F)F)cc(-c5cccc(C(F)(F)F)c5)nc34)s2)CC1 [Example 248]	214
CS(=O)(=O)c1cccc(C#Cc2cnn3c(C(F)(F)F)cc(-c4ccc(C(F)(F)F)cc4)nc23)c1 [Example 40]	214
CCOc1cccc(-c2cc(C(F)F)n3ncc(C#Cc4ccc(N)nc4)c3n2)c1 [Example 208]	162
O=S(=O)(c1ccc(C#Cc2cnn3c(C(F)(F)F)cc(-c4cccc(C(F)(F)F)c4)nc23)s1)N1CCNCC1 [Example 261]	160
Cc1cc(-c2cc(C(F)(F)F)n3ncc(C#Cc4ncc(S(N)(=O)=O)s4)c3n2)ccc1Cl [Example 104]	123
NS(=O)(=O)c1ccc(C#Cc2ncn3c(C(F)F)cc(-c4ccc(C(F)(F)F)cc4)nc23)s1 [Example 275]	223
NS(=O)(=O)c1cccc(C#Cc2cnn3c(C(F)(F)F)cc(-c4ccc(C(F)(F)F)cc4)nc23)c1 [Example 1]	243

Proceeding to the next compound to report its melting point.
Data request: melting point for Cc1cc(-c2cc(C(F)(F)F)n3ncc(C#Cc4ccc(N)nc4)c3n2)ccc1C(F)(F)F [Example 289] ?
Data returned: 201

The origin of these recorded values is patent US8063048B2.
